test: chemical genetic growth profiling, strain panel (AID 1159580);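 also: tested at 20 µM; growth read once vehicle control cultures reached saturation at 30 °C; 1 = growth at the plate median or of vehicle wells; lower values mean less growth of the strain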; settings: S. cerevisiae deletion strains, growth OD, locus YJR066W, strain TOR1 (second series), stronger effect = lower value
In all, about 5,500 compounds went through this assay and about 2,000 (36%) were called active. Another 18% or so got no clear call; they are omitted. This is one part of the list.
Parameter normalized growth: see the listing below.

{"molecule": "Cc1oc(C(C)(C)C)cc1-c1cc(NC(=O)c2ccccc2)n[nH]1", "normalized growth": 0.883}
{"molecule": "O=[N+]([O-])c1cc(C(F)(F)F)ccc1Sc1n[nH]c(-c2cc(Cl)cc(Cl)c2)n1", "normalized growth": 0.203}
{"molecule": "CC1SC(c2cccnc2)N(c2ccc(Cl)cc2)C1=O (configuration not stated)", "normalized growth": 0.704}
{"molecule": "CCOC(=O)c1ccc(N=Cc2cc(Cl)cc(Cl)c2O)cc1", "normalized growth": 0.289}
{"molecule": "CC(C)(C)c1ccc(-c2cc(NC(=O)c3ccc(Cl)cc3)n[nH]2)cc1", "normalized growth": 0.983}
{"molecule": "Cc1cc(N=Cc2cc(Cl)cc(Cl)c2O)no1", "normalized growth": 0.565}
{"molecule": "CC1SC(c2cccnc2)N(c2ccc(F)cc2F)C1=O (configuration not stated)", "normalized growth": 0.966}
